Entry source: patent US20110165145A1

- experimental system: insulin-like growth factor II (IGF-II), amino acids 1-67 (human, UniProt P01344 25-91)
- Sequence (P01344 25-91): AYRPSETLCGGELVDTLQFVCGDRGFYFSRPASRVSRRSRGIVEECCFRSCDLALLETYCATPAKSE
- test protocol: cell-based or functional assay
Provide the recorded IC50, IGF-II stimulated Ba/F3 cell proliferation (MTS) for the entries that follow.
Answers are plain numbers, in µg/mL.

Worked cases, answers included:
>>> test_value("M0064-E04 Fab (Fab, V domains shown, soluble Fab (sFab); also called R0032-A03; 566A-M0064-E04) VH: EVQLLESGGGLVQPGGSLRLSCAASGFTFSVYDMNWVRQAPGKGLEWVSSISSSGGGTLYADSVKGRFTISRDNSKNTLYLQMNSLRAEDTAVYYCARDSDTSSYYWYYDLWGRGTLVTVSS VL: DIQMTQSPSSLSASVGDRVTITCQASHDISNYLNWYQQKPGKAPKLLIYAASRLQSGVPSRFSGGGSGTDFSLTISSLQAEDFATYYCQQSYSFPRTFGQGTNLEIKR")
3.04
>>> test_value("M0064-F02 Fab (Fab, V domains shown, soluble Fab (sFab); also the Fab crystallised with IGF-II; also called R0032-A11; 566A-M0064-F02) VH: EVQLLESGGGLVQPGGSLRLSCAASGFTFSNYIMWWVRQAPGKGLEWVSVISSSGGMTRYADSVKGRFTISRDNSKNTLYLQMNSLRAEDTAVYYCARDNGDYVGEKGFDIWGQGTMVTVSS VL: DIQMTQSPSSLSASVGDRVTITCRASQSISNYLNWYQQKPGKAPKLLIYTASTLQSGVPSRFSGSASGTDFTLTINSLQPEDFATYSCQQSYNSPWTFGQGTKVEIKR")
0.68

-- ask Give its IC50, IGF-II stimulated Ba/F3 cell proliferation (MTS) value. Item: M0063-F02 Fab (Fab, V domains shown, soluble Fab (sFab); also called R0032-A01) VH: EVQLLESGGGLVQPGGSLRLSCAASGFTFSKYEMDWVRQAPGKGLEWVSVISSSGGGTIYADSVKGRFTISRDNSKNTLYLQMNSLRAEDTAMYYCARGRTLYGGAFDIWGQGTMVTVSS VL: DIQMTQSPSSLSASVGDRVTITCRASQPINTYLNWYQQRPGKAPRILIYTSSTLQSGVPSRFSGSGSGTDFTLTISSVQPEDFATYYCQQSYSFPLTFGGGTKVEIKR
-- reply 5.56
